// data source = the Immune Epitope Database (IEDB)

# assayed_system: HLA-B*53:01
# assay_notes: IEDB peptide-MHC binding, purified MHC/competitive/radioactivity; filed as Kd, often an IC50 or EC50 that approximates it; bounds were set here for any values at or beyond the usual limits of such assays
# stated_conditions: source organism: Dengue virus 4 Philippines/H241/1956
Hi there, I'd appreciate the recorded log10 Kd for every entry that follows.
Recall that a logarithmic scale is used here: each number is log10 of Kd in µM.

NPRLCTREEF    -0.71
EPDYEVDEDI    0.07
MTTEDMLKVW    0.06
IAVASGLLW    -1.51

Notebook: pull reported log10 Kd for HLA-B*53:01, entry "YPKTKLTDW"
0.16

====

# assayed_system: HLA-A*03:01
# assay_notes: IEDB peptide-MHC binding, purified MHC/competitive/radioactivity; filed as Kd, often an IC50 or EC50 that approximates it; bounds were set here for any values at or beyond the usual limits of such assays
# stated_conditions: source organism: Dengue virus 4 Philippines/H241/1956
measured_endpoint: Kd (nM)
Numbers only, in nM.

So what does the record say about Kd for "CLRRRVTRK" ?
2.7

====

Give pKd for every item shown.
# assayed_system: HLA-A*11:01
# assay_notes: IEDB peptide-MHC binding, purified MHC/competitive/radioactivity; filed as Kd, often an IC50 or EC50 that approximates it; bounds were set here for any values at or beyond the usual limits of such assays
# stated_conditions: source organism: Dengue virus 2 Jamaica/1409/1983
Give bare numbers, as −log10 of the molar value.

RQMEGEGIFK    6.90

Note: attention shifts to another entry.
Reported pKd, sequence "AISGDDCVVK" : ____
5.68

====

# assayed_system: HLA-B*58:01
# assay_notes: IEDB peptide-MHC binding, purified MHC/direct/fluorescence; filed as Kd, often an IC50 or EC50 that approximates it; bounds were set here for any values at or beyond the usual limits of such assays
# stated_conditions: source organism: Campylobacter jejuni
pKd: −log10 of the molar value.
measured_endpoint: pKd

VFKVKLHEI    ≤ 4.70

Moving on to another sequence below.
Recorded pKd of "VKKLWGHLP" , please.
≤ 4.70

====

# assayed_system: HLA-B*08:01
# assay_notes: IEDB peptide-MHC binding, purified MHC/direct/fluorescence; filed as Kd, often an IC50 or EC50 that approximates it; bounds were set here for any values at or beyond the usual limits of such assays
# stated_conditions: source organism: Brucella melitensis
measured_endpoint: pKd
One number for each entry, as −log10 of the molar value.

Need pKd, item "TPPVDRMAV"
5.04

====

# assayed_system: HLA-B*51:01
# assay_notes: IEDB peptide-MHC binding, purified MHC/competitive/fluorescence; filed as Kd, often an IC50 or EC50 that approximates it; bounds were set here for any values at or beyond the usual limits of such assays
# stated_conditions: source organism: Listeria monocytogenes serotype 4b str. CLIP 80459
pKd: −log10 of the molar value.
measured_endpoint: pKd

# query: pKd of entry "FAIPIAEQI"
≤ 4.70

====

# assayed_system: HLA-A*26:03
# assay_notes: IEDB peptide-MHC binding, purified MHC/competitive/fluorescence; filed as Kd, often an IC50 or EC50 that approximates it; bounds were set here for any values at or beyond the usual limits of such assays
# stated_conditions: source organism: Vaccinia virus WR
pKd: −log10 of the molar value.
measured_endpoint: pKd

Recorded pKd for "KVFDKSLLY" , please?
≤ 4.70
